# assay: qHTS of pediatric cancer cell lines to identify multiple opportunities for drug repurposing: Primary screen for Rh41 cells (AID 1347108); further: nearly all actives have a fitted effect of over 70% in size
# protocolConditions: Rh41 rhabdomyosarcoma viability, CellTiter-Glo luminescence, 48 h; series mostly up to 46 µM
Records with an inconclusive call do not appear. The source made the active and inactive calls. The call rests on the fitted dose curve; in most records, active means well fitted cell-killing curve with a large enough effect; inconclusive means small, poorly fitted or top-dose-only effect; inactive means no such curve, though single readings can be large or run the other way.
Possible outcomes: yes (active), no (inactive)

CCCC1CCCCN1 (centres undefined) :: no
CC(=O)Nc1cc([As](=O)(O)O)ccc1O :: no
Cc1cccc(C)c1NC(=O)CN1CCCC1=O :: no
Cc1ccc2c(c1)C1CN(C)CCC1N2 (centres undefined) :: no
c1ccc(C2CC2)c(OCC2=NCCN2)c1 :: no
COc1ccccc1N1CCNCC1 :: no
C=C(C)[C@H]1Cc2c(ccc3c2O[C@@H]2COc4cc(OC)c(OC)cc4[C@@H]2C3=O)O1 :: yes
Cc1ncc(CNC(=O)N(CCCl)N=O)c(N)n1 :: no
CC(C)(N)Cc1ccc(Cl)cc1 :: no

====

# testTarget: Protein phosphatase 1D (Homo sapiens)
# assay: RapidFire Mass Spectrometry qHTS Assay for Modulators of WT P53-Induced Phosphatase 1 (WIP1) (AID 1347424);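 further: amount of dephosphorylated VEPPL-S-QETFS peptide product formed by WIP1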
# protocolConditions: WIP1 dephosphorylation of phosphopeptide, RapidFire MS; series mostly up to 63 µM
Inconclusive results are not listed. Activity calls are given as the source filed them. The call rests on the fitted dose curve; in most records, active means well fitted inhibition curve with a large enough effect; inconclusive means small, poorly fitted or top-dose-only effect; inactive means no such curve, though single readings can be large or run the other way.
Possible outcomes: active, inactive

CN1C[C@H](CNC(=O)OCc2ccccc2)C[C@@H]2c3cccc4c3c(cn4C)C[C@H]21 :: inactive
CCN(C(C)=O)c1cccc(-c2ccnc3c(C#N)cnn23)c1 :: inactive
O=c1oc2ccccc2c(O)c1C(CC(O)c1ccc(-c2ccc(Br)cc2)cc1)c1ccccc1 (stereo not given) :: active
CC(C)CC(N(C)C)C1(c2ccc(Cl)cc2)CCC1 (stereo not given) :: inactive
Cc1ccc(-c2nc3ccc(C)cn3c2CC(=O)N(C)C)cc1 :: inactive

====

# Test system: DFO2036
# assay: qHTS profiling for inhibitors of Plasmodium falciparum proliferation (AID 504749); further: nearly all actives have a fitted effect of over 60% in size
# protocolConditions: P. falciparum in erythrocytes, SYBR Green DNA, 72 h; series mostly up to 28.7 µM
Inconclusive results are not listed. Activity calls are given as the source filed them. Calls come from the whole dose curve; as a rule, active = well fitted inhibition curve with a large enough effect; inconclusive = small, poorly fitted or top-dose-only effect; inactive = flat fitted curve, though single readings scatter.
Classes used: true (1) for active, false (0) for inactive

CCN(CC)CCN1C(=O)CN=C(c2ccccc2F)c2cc(Cl)ccc21 :: false (0)
Oc1cc(Cl)ccc1Oc1ccc(Cl)cc1Cl :: true (1)
c1ccc2c(c1)OCC(C1=NCCN1)O2 (stereo not drawn) :: false (0)
NCCc1cc(O)c(O)cc1O :: false (0)
CC(=O)Nc1cc([As](=O)(O)O)ccc1O :: false (0)
NP(N)(=O)NC(=O)c1ccc(F)cc1 :: false (0)
CN1C(=S)CN=C(c2ccccc2)c2cc(Cl)ccc21 :: false (0)
Cc1ncc(CNC(=O)N(CCCl)N=O)c(N)n1 :: false (0)
Oc1cccc2cccnc12 :: false (0)
N#CC(C#N)=Cc1ccc(O)c(O)c1 :: false (0)
O=c1[nH]c2ccccc2n1C1CCN(CCCC(c2ccc(F)cc2)c2ccc(F)cc2)CC1 :: false (0)
CC(C)=CC1C(C(=O)OCc2cccc(Oc3ccccc3)c2)C1(C)C (stereo not drawn) :: false (0)
Cn1c(CCCC(=O)O)nc2cc(N(CCCl)CCCl)ccc21 :: false (0)

====

# protocolConditions: Ebola virus entry cell assay, ratio channel
The source made the active and inactive calls.
Classes used: true (1) (active), false (0) (inactive)

CC(C)c1c(C(=O)Nc2ccccc2)c(-c2ccccc2)c(-c2ccc(F)cc2)n1CC[C@@H](O)C[C@@H](O)CC(=O)O :: false (0)
COc1cc(Cc2cnc(N)nc2N)cc(OC)c1OC :: false (0)
COc1ccccc1OCC(O)COC(N)=O (stereo not given) :: false (0)
CCOC(=O)[C@H](CCc1ccccc1)N[C@@H](C)C(=O)N1[C@H](C(=O)O)C[C@@H]2CCC[C@@H]21 :: false (0)
CC1(C)S[C@@H]2[C@H](NC(=O)C(C(=O)O)c3ccccc3)C(=O)N2[C@H]1C(=O)O (stereo not given in full) :: false (0)
Fc1ccc([C@@H]2CCNC[C@H]2COc2ccc3c(c2)OCO3)cc1 :: true (1)
CCCCc1ncc(/C=C(\Cc2cccs2)C(=O)O)n1Cc1ccc(C(=O)O)cc1 :: false (0)
CCC1C(=O)OCC1Cc1cncn1C (stereo not given) :: false (0)
CC(=O)Nc1nnc(S(N)(=O)=O)s1 :: false (0)
COC(c1ccccc1)(c1ccccc1)[C@H](Oc1nc(C)cc(C)n1)C(=O)O :: false (0)
